src = patent US20210403579A1

study target: T1, Mouse ST2 (mouse, UniProt P14719 27-332, limits assumed)
T1 construct: also called mouse ST2 protein
T1 sequence (looked up): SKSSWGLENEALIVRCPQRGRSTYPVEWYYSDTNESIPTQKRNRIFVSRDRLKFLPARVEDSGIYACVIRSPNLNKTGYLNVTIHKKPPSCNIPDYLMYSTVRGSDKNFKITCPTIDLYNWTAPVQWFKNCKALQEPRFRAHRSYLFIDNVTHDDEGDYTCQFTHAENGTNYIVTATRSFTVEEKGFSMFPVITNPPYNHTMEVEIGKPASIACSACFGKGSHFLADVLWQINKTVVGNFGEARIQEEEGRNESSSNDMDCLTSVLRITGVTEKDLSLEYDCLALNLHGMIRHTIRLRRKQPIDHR
protocol text: SPR (Carterra), antibody immobilized, ST2 analyte, 1:1
reported metric: kon (M⁻¹ s⁻¹)

- binder: "Human ST2 IgG1 Antibody 25 (antibody, V domains shown, IgG1, kappa; also called ST2 Antibody 25) VH: QVQLVQSGAEVKKPGSSVKVSCKASGGTFSNYAISWVRQAPGQGLEWMGWISAYNGNTNYAQKFQGRVTMTRDTSTSTVYMELSSLRSEDTAVYYCARSTNALDYWGQGTLVTVSS VL: DIQMTQSPSSLSASVGDRVTITCRASQGIRSNLDWYQQKPGKAPKLLISIVSNLGSGVPSRFSGSGSGTDFTLTISSLQPEDFATYYCLQHNSNPPTFGGGTKVEIKR"
  obs value: 200000
- binder: "Human ST2 IgG1 Antibody 57 (antibody, V domains shown, IgG1, kappa; also called ST2 Antibody 57) VH: QVQLVQSGAEVKKPGASVKVSCKASGYTFTGYYMHWVRQAPGQGLEWMGVINPSGGSTSYAQKFQGRVTMTRDTSTSTVYMELSSLRSEDTAVYYCARGDYYYGSGSDYYYYYGMDVWGQGTLVTVSS VL: DIQMTQSPSSLSASVGDRVTITCRASQGVTSWLAWYQQKPGKAPKLLIYAASTLQSGVPSRFSGSGSGTDFTLTISSLQPEDFATYYCQQANSFPLTFGGGTKVEIKR"
  obs value: 51000
- binder: "Human ST2 IgG1 Antibody 16 (antibody, V domains shown, IgG1, kappa; also called ST2 Antibody 16) VH: QVQLVQSGAEVKKPGASVKVSCKASGYTFTSHYMHWVRQAPGQGLEWMGIINPSGGSTSYAQKFQGRVTMTRDTSTSTVYMELSSLRSEDTAVYYCARAGIGYLAAHDLYYYYGMDVWGRGTLVTVSS VL: EIVMTQSPATLSVSPGERATLSCRASQSVSSNFAWYQQKPGQAPRLLIYGASTRATGIPARFSGSGSGTEFTLTISSLQSEDFAVYYCQQYYSTPYTFGQGTKVEIKR"
  obs value: 320000
- binder: "Human ST2 IgG1 Antibody 103 (antibody, V domains shown, IgG1, kappa; also called ST2 Antibody 103) VH: QVQLVQSGAEVKKPGASVKVSCKASGYTFTSYYMHWVRQAPGQGLEWMGWMNPNSGNTGYAQKFQGRVTMTRDTSTSTVYMELSSLRSEDTAVYYCARETSFDYYYGMDVWGQGTTVTVSS VL: DIQMTQSPSSLSASVGDRVTITCRASQSISNWLAWYQQKPGKAPKLLIYDGSNLGTGVPSRFSGSGSGTDFTLTISSLQPEDFATYYCLQDFTYPLTFGGGTKVEIKR"
  obs value: 27000
- binder: "Human ST2 IgG1 Antibody 21 (antibody, V domains shown, IgG1, kappa; also called ST2 Antibody 21) VH: QVQLVQSGAEVKKPGASVKVSCKASGYTFSNHYMHWVRQAPGQGLEWMGWVNPTSGNTGYAQKFQGRVTMTRDTSTSTVYMELSSLRSEDTAVYYCARDLGVTYFDLWGRGTLVTVSS VL: DIQMTQSPSSLSASVGDRVTITCRASQGISSWLAWYQQKPGKAPKLLIYEASHLETGVPSRFSGSGSGTDFTLTISSLQPEDFATYYCLQDYNYPLTFGGGTKVEIKR"
  obs value: 8500
